Reference source: patent US20210155689A1

# tgt: T1, human LAG-3 (full length, on the cell surface) (human, UniProt P18627 23-525)
# T1 sequence: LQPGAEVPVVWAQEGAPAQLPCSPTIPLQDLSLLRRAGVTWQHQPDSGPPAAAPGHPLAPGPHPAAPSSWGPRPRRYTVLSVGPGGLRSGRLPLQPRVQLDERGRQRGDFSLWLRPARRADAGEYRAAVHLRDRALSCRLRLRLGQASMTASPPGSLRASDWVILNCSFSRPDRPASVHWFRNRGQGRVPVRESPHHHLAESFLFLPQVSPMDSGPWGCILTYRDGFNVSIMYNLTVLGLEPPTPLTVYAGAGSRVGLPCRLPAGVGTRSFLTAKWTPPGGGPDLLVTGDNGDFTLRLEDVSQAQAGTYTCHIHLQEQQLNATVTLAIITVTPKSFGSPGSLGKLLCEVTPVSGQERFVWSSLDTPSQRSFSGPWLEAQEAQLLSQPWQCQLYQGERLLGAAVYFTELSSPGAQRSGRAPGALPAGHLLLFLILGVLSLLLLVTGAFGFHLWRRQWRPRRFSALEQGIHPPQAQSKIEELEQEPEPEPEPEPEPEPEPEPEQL
# testDescription: cell-based or functional assay
Could you please report measured mIL-2 (pg/mL), antigen-specific T lymphocyte stimulation test; antibody 2 ug/mL for the items listed next?

Which mIL-2 (pg/mL), antigen-specific T lymphocyte stimulation test; antibody 2 ug/mL is reported for this binder? 556F6B8 (mouse antibody purified from hybridoma) (antibody, V domains shown, also called mAb123-556F6B8) VH: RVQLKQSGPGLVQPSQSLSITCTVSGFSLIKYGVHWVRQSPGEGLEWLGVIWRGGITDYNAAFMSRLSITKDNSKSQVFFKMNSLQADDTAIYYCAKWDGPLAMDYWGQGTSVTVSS VL: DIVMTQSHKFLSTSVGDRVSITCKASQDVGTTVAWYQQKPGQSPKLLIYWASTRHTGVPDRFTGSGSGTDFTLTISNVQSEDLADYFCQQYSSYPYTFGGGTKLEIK
270 pg/mL

What do you have for 409D4E10 (mouse antibody purified from hybridoma) (antibody, V domains shown, also called mAb112-409D4E10) VH: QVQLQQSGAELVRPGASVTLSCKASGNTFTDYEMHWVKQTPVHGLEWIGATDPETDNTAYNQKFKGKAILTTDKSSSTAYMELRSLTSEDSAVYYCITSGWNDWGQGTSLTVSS VL: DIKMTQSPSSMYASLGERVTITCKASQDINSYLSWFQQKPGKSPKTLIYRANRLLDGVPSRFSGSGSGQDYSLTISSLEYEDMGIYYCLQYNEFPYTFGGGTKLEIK ?
346 pg/mL

And then 409B11E12 (mouse antibody purified from hybridoma) (antibody, V domains shown, also called mAb104-409B11E12) VH: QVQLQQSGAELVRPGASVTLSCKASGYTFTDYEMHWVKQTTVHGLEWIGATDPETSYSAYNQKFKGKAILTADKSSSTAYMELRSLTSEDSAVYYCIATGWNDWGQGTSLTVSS VL: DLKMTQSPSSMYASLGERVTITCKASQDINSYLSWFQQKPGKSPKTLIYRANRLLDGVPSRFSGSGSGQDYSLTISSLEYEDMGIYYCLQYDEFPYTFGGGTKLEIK , what is it?
376 pg/mL

Request: 405B8H3 (mouse antibody purified from hybridoma) (antibody, V domains shown, also called mAb103-405B8H3; 405B81-13) VH: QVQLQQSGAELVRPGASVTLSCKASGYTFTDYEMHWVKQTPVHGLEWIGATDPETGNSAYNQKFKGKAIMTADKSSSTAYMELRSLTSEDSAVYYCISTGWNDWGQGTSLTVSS VL: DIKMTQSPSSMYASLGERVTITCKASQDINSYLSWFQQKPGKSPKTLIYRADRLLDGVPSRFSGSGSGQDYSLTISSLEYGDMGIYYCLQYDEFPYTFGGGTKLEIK
435 pg/mL
